Hey, just so you know, these numbers are from patent US12606544B2.

As shown below, each of these compounds has a reported log10 IC50 value.
target: JAK2 (Homo sapiens); assay: Lance Ultra Kinase Assay, recombinant JAK2; settings: 5 mM ATP
Sequence (O60674 whole entry): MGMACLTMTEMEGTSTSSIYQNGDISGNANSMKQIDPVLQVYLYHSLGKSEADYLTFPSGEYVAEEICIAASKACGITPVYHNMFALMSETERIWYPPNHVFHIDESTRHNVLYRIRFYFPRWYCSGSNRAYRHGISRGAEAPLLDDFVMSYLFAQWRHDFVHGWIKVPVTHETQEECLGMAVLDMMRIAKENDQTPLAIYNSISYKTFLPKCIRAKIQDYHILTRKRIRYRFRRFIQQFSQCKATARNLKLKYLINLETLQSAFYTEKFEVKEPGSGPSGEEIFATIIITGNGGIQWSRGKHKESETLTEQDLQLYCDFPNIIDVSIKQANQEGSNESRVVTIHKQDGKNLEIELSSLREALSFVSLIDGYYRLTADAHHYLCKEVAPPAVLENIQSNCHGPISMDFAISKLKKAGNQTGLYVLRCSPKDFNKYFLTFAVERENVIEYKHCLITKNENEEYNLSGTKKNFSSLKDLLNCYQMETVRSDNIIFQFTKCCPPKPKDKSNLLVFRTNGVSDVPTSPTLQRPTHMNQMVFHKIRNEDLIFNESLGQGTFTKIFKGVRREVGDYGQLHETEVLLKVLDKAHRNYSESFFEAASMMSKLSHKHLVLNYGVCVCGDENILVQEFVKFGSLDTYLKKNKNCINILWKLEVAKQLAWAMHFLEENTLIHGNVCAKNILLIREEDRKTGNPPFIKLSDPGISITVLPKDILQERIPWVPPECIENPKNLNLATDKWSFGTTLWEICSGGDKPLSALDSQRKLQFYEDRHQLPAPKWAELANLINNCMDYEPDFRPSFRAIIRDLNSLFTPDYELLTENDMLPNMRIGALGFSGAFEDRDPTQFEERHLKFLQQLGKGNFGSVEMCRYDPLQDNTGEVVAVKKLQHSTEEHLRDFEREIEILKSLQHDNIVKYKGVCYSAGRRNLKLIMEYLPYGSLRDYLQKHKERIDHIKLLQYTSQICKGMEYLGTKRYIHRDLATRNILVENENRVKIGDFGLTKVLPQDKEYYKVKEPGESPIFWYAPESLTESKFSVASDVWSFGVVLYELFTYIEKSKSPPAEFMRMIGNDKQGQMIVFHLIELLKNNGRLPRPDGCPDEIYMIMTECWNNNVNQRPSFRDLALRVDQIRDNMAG
# values: log10(IC50), units nM

As a guide, the following entries are already answered.
smiles entry	measured result
COC[C@H](C(=O)Nc1cccc2c(-c3nc(Nc4ccc(-c5cnco5)nc4)ncc3F)c[nH]c12)N1CCN(C)CC1	2.34
COC[C@H](C(=O)Nc1cccc2c(-c3nc(Nc4cnn(-c5cccc(CO)c5)c4)ncc3F)c[nH]c12)N1CCN(C)CC1	1.54
COC[C@H](C(=O)Nc1cccc2c(-c3nc(Nc4ccc5cn[nH]c5c4)ncc3F)c[nH]c12)N1CCN(C)CC1	1.94
COC[C@H](C(=O)Nc1cccc2c(-c3nc(Nc4ccc5c(C)n[nH]c5c4)ncc3F)c[nH]c12)N1CCN(C)CC1	1.63
COC[C@H](C(=O)Nc1cccc2c(-c3nc(Nc4ccc(C(=O)OC)nc4)ncc3F)c[nH]c12)N1CCN(C)CC1	2.67

Entry under review: `COC[C@H](C(=O)Nc1cccc2c(-c3nc(Nc4ccc5c(c4)C(=O)OCC5)ncc3F)c[nH]c12)N1CCN(C)CC1` . Reported log10 IC50?
1.34

Also, `COC[C@H](C(=O)Nc1cccc2c(-c3nc(Nc4cnc(C)c(C(=O)OC)c4)ncc3F)c[nH]c12)N1CCN(C)CC1` please.
1.76

Also, `COCCOc1ccc(Nc2ncc(F)c(-c3c[nH]c4c(NC(=O)[C@@H](COC)N5CCN(C)CC5)cccc34)n2)cn1` please.
2.30

Also, `COC[C@H](C(=O)Nc1cccc2c(-c3nc(Nc4ccc5sc(CO)nc5c4)ncc3F)c[nH]c12)N1CCN(C)CC1` please.
1.81

Also, `COC[C@H](C(=O)Nc1cccc2c(-c3nc(Nc4cnn(-c5ccccc5CO)c4)ncc3F)c[nH]c12)N1CCN(C)CC1` please.
2.26

Also, `CNC(=O)COc1cncc(Nc2ncc(F)c(-c3c[nH]c4c(NC(=O)[C@@H](COC)N5CCN(C)CC5)cccc34)n2)c1` please.
1.85

Also, `COC[C@H](C(=O)Nc1cccc2c(-c3nc(Nc4ccc5c(CO)ncn5c4)ncc3F)c[nH]c12)N1CCN(C)CC1` please.
2.51

Also, `COC[C@H](C(=O)Nc1cccc2c(-c3nc(Nc4cnc5cn[nH]c5c4)ncc3F)c[nH]c12)N1CCN(C)CC1` please.
2.33

Also, `CCOC(=O)Cc1ccc(Nc2ncc(F)c(-c3c[nH]c4c(NC(=O)[C@@H](COC)N5CCN(C)CC5)cccc34)n2)cn1` please.
2.34

====

test system: phosphorylation of STAT6; experiment: Cellular p-STAT6 assay, IL-13 stimulated THP-1 cells, flow cytometry; format: cell-based; conditions: Homo sapiens, THP-1, THP-1 cells, IL-13 10 ng/ml; read-out: pSTAT6 IC50
As shown below, each of these compounds has a reported pIC50 value.
Here pIC50 is given on a logarithmic scale as minus log10 of the concentration in mol/L.

Entry under review: COC[C@H](C(=O)Nc1cccc2c(-c3nc(Nc4ccc(OCc5ncco5)nc4)ncc3F)c[nH]c12)N1CCN(C)CC1 [Example 54] . Reported pIC50?
7.82

Also, COC[C@H](C(=O)Nc1cccc2c(-c3nc(Nc4cnn(-c5cccc(CO)c5)c4)ncc3F)c[nH]c12)N1CCN(C)CC1 [Example 67] please.
7.69

Also, COC[C@H](C(=O)Nc1cccc2c(-c3nc(Nc4cnn(-c5ccccc5C(=O)OC)c4)ncc3F)c[nH]c12)N1CCN(C)CC1 [Example 6] please.
8.22
